IC50 reference
Biological target: murine MEKK2 (mMEKK2) (Mus musculus, UniProt Q61083)
Test: TR-FRET kinase assay (mMEKK2/MBP)
Type: biochemical
Conditions: substrate biotin MBP, 60 minutes at room temperature
Method: In one approach, MEKK2 inhibitory activity of compounds of the invention can be assessed using the time-resolved Fluorescence Resonance Energy Transfer (TR-FRET) assay detailed in Example 5. […] This fluorescent energy is measured using a time-resolved fluorescence measurement protocol (LANCE high count 615/665); excitation occurred with 1,000 flashes at 325 nm, measurement was delayed by 100 μs, and data were acquired for 50 μs at 615 and 665 nm. […]

The examples below pair each entry with its known result.
- compound: "N#Cc1c(-c2ccccc2OC(F)(F)F)nc(SCc2cccc(NC(=O)c3ccc(Cl)c(Cl)c3)c2)[nH]c1=O [Example 2dd]"
  property label: "IC50"
  result: "< 5 µM"
- compound: "COc1cccc(-c2nc(SCc3cccc(NC(=O)c4c(-c5ccccc5)noc4C)c3)[nH]c(=O)c2C#N)c1 [Example 2i]"
  property label: "IC50"
  result: "< 10 µM"
- compound: "COc1cccc(-c2nc(SCc3cccc(NCc4ccc(-c5cc(C(F)(F)F)n(C)n5)s4)c3)[nH]c(=O)c2C#N)c1 [Example 1q]"
  property label: "IC50"
  result: "< 1 µM"

We next turn to a different compound, shown below.
Problem: # get_value(readout='IC50', item= COc1ccc(-c2nc(SCc3cccc(NC(=O)c4ccc(Cl)c(Cl)c4)c3)[nH]c(=O)c2C#N)cc1-c1cccs1 [Example 2y] )
Result: < 5 µM

---

Molecular target: murine MEKK2 (mMEKK2) (Mus musculus, UniProt Q61083)
Assay: TR-FRET kinase assay (mMEKK2/MBP)
Type: biochemical
Conditions: substrate biotin MBP, 60 minutes at room temperature
property label: IC50

- compound: "CCc1nc(C)c(CNc2cccc(CSc3nc(-c4cccc(OC)c4)c(C#N)c(=O)[nH]3)c2)[nH]1 [Example 4e]"
  system under test: "murine MEKK2 (mMEKK2) (Mus musculus, UniProt Q61083)"
  property label: "IC50"
  result: "> 40 µM"
- compound: "COc1cccc(-c2nc(SCc3ccc(NC(=O)c4cc(C(F)(F)F)cc(Cl)c4F)cc3)[nH]c(=O)c2C#N)c1 [Example 2eee]"
  system under test: "murine MEKK2 (mMEKK2) (Mus musculus, UniProt Q61083)"
  property label: "IC50"
  result: "< 5 µM"
- compound: "COc1cccc(-c2nc(SCc3ccc(NC(=O)c4sccc4Cl)cc3)[nH]c(=O)c2C#N)c1 [Example 2aaa]"
  system under test: "murine MEKK2 (mMEKK2) (Mus musculus, UniProt Q61083)"
  property label: "IC50"
  result: "< 5 µM"

We next turn to a different compound, shown below.
Problem: # get_value(readout='IC50', item= COc1cccc(-c2nc(SCc3ccc(NC(=O)c4ccccc4)cc3)[nH]c(=O)c2C#N)c1 [Example 2pp] )
Result: < 20 µM

---

Target: UniProt:Q61083
Sequence (Q61083 1-619): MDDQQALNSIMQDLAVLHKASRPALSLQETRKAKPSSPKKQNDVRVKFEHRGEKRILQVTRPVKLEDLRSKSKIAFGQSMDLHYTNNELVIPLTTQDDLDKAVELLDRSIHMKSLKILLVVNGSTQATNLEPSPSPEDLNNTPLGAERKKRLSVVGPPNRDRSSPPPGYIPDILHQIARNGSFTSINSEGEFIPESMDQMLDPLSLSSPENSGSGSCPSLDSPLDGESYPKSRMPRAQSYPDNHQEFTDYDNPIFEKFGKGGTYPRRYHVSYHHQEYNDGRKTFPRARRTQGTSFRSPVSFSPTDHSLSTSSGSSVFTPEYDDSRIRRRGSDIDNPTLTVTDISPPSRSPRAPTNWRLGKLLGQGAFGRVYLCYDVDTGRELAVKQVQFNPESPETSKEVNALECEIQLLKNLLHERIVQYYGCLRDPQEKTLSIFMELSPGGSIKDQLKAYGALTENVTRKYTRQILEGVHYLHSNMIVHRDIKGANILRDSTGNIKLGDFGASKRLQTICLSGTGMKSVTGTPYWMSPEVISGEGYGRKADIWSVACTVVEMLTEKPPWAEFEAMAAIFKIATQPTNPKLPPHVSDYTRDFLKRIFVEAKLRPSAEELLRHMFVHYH
Assay: MEKK2 PhosphoELISA (mMEKK2/MKK4)
Type: biochemical
Conditions: substrate MKK4/SKK1 (unactive), ATP final 10 μM, O.D. 450 nm
pIC50: −log10 of the molar value.
property label: pIC50

- record smiles: "N#Cc1c(-c2cccc(-n3ccnc3)c2)nc(SCc2cccc(NC(=O)c3ccc(Cl)c(Cl)c3)c2)[nH]c1=O"
  system under test: "UniProt:Q61083"
  pIC50: "> 5.00"
- record smiles: "COc1ccc(-c2nc(SCc3cccc(NCc4ccc(Cl)c(Cl)c4)c3)[nH]c(=O)c2C#N)cc1OC"
  system under test: "UniProt:Q61083"
  pIC50: "> 6.00"
- record smiles: "N#Cc1c(-c2cccc(C(F)(F)F)c2)nc(SCc2cccc(NC(=O)c3ccc(Cl)c(Cl)c3)c2)[nH]c1=O"
  system under test: "UniProt:Q61083"
  pIC50: "> 5.30"
- record smiles: "N#Cc1c(-c2ccccc2-c2cc3ccccc3s2)nc(SCc2cccc(NC(=O)c3ccc(Cl)c(Cl)c3)c2)[nH]c1=O"
  system under test: "UniProt:Q61083"
  pIC50: "> 6.00"
- record smiles: "N#Cc1c(-c2ccccc2OC(F)(F)F)nc(SCc2cccc(NC(=O)c3ccc(Cl)c(Cl)c3)c2)[nH]c1=O"
  system under test: "UniProt:Q61083"
  pIC50: "> 5.30"
- record smiles: "CN(CCOc1ccc(-c2nc(SCc3cccc(NC(=O)c4ccc(Cl)c(Cl)c4)c3)[nH]c(=O)c2C#N)cc1)c1ccncc1"
  system under test: "UniProt:Q61083"
  pIC50: 4.70

We next turn to a different compound, shown below.
Problem: # get_value(readout='pIC50', item= N#Cc1c(-c2cccc(N3CCCC3)c2)nc(SCc2cccc(NC(=O)c3ccc(Cl)c(Cl)c3)c2)[nH]c1=O )
Result: > 6.00

---

Molecular target: murine MEKK2 (mMEKK2) (Mus musculus)
Test: TR-FRET kinase assay (mMEKK2/MBP)
Assay type: biochemical
Details: substrate biotin MBP, 60 minutes at room temperature
pIC50: −log10 of the molar value.
property label: pIC50

- molecule: "COc1cccc(-c2nc(SCc3cccc(NC(=O)Nc4cc(F)cc(F)c4)c3)[nH]c(=O)c2C#N)c1 [Example 3b]"
  pIC50: "> 5.30"
- molecule: "COc1cccc(-c2nc(SCc3ccccc3NC(=O)Cc3ccccc3)[nH]c(=O)c2C#N)c1 [Example 2mmm]"
  pIC50: "> 4.40"
- molecule: "COc1cccc(-c2nc(SCc3ccc(NC(=O)c4c(F)cc(F)cc4F)cc3)[nH]c(=O)c2C#N)c1 [Example 2ww]"
  pIC50: "> 4.70"
- molecule: "COc1cccc(-c2nc(SCc3cccc(NC(=O)Nc4ccc5c(c4)OCCO5)c3)[nH]c(=O)c2C#N)c1 [Example 3j]"
  pIC50: "> 5.00"
- molecule: "N#Cc1c(-c2cccc(N)c2)nc(SCc2cccc(NC(=O)c3ccc(Cl)c(Cl)c3)c2)[nH]c1=O [Example 4n]"
  pIC50: "> 5.00"

Problem: # get_value(readout='pIC50', item= COc1cccc(-c2nc(SCc3ccc(NC(=O)NCc4ccccc4)cc3)[nH]c(=O)c2C#N)c1 [Example 3l] )
Result: > 5.00

Problem: # get_value(readout='pIC50', item= COc1cccc(-c2nc(SCc3ccc(NC(=O)c4cnn(-c5ccccc5)c4C(F)(F)F)cc3)[nH]c(=O)c2C#N)c1 [Example 2fff] )
Result: > 5.30

---

Target: murine MEKK2 (mMEKK2) (Mus musculus, UniProt Q61083)
Experiment: MEKK2 PhosphoELISA (mMEKK2/MKK4)
Assay type: biochemical
Details: substrate MKK4/SKK1 (unactive), ATP final 10 μM, O.D. 450 nm
IC50 reference

The examples below pair each entry with its known result.
- compound: "N#Cc1c(-c2cccc(C(=O)O)c2)nc(SCc2cccc(NC(=O)c3ccc(Cl)c(Cl)c3)c2)[nH]c1=O [Example 4m]"
  system under test: "murine MEKK2 (mMEKK2) (Mus musculus, UniProt Q61083)"
  result: "< 20 µM"
- compound: "N#Cc1c(-c2cccc(-n3cccc3)c2)nc(SCc2cccc(NC(=O)c3ccc(Cl)c(Cl)c3)c2)[nH]c1=O [Example 4q]"
  system under test: "murine MEKK2 (mMEKK2) (Mus musculus, UniProt Q61083)"
  result: "< 1 µM"
- compound: "N#Cc1c(-c2ccccc2C(F)(F)F)nc(SCc2cccc(NC(=O)c3ccc(Cl)c(Cl)c3)c2)[nH]c1=O [Example 2ee]"
  system under test: "murine MEKK2 (mMEKK2) (Mus musculus, UniProt Q61083)"
  result: "< 1 µM"
- compound: "COc1cccc(-c2nc(SCc3cccc(NCc4cccc(OCCN(C)C)c4)c3)[nH]c(=O)c2C#N)c1 [Example 4a]"
  system under test: "murine MEKK2 (mMEKK2) (Mus musculus, UniProt Q61083)"
  result: "> 40 µM"
- compound: "COc1cccc(-c2nc(SCc3cccc(NC(=O)Nc4ccc(Cl)c(Cl)c4)c3)[nH]c(=O)c2C#N)c1 [Example 3a]"
  system under test: "murine MEKK2 (mMEKK2) (Mus musculus, UniProt Q61083)"
  result: "< 1 µM"
- compound: "COc1cccc(-c2nc(SCc3cccc(NC(=O)c4ccc(F)c(F)c4)c3)[nH]c(=O)c2C#N)c1 [Example 2oo]"
  system under test: "murine MEKK2 (mMEKK2) (Mus musculus, UniProt Q61083)"
  result: "< 5 µM"

We next turn to a different compound, shown below.
Problem: Lookup: IC50 / murine MEKK2 (mMEKK2) (Mus musculus, UniProt Q61083) / N#Cc1c(-c2cccc(Br)c2)nc(SCc2cccc(NC(=O)c3ccc(Cl)c(Cl)c3)c2)[nH]c1=O [Example 2nn]
Result: < 1 µM

Measured values drawn from patent US20060100226A1 for this set.
